Experiment: Compound pharmacokinetic evaluation in CD-1 mice
Assay type: in vivo, CD-1 mouse
Conditions: male, mouse, plasma, po, read-out: Bioavailability F
Property label: bioavailability (%)
Give bare numbers, in %.

Prompt: Endpoint output: bioavailability of Cl.Cn1nc(-c2ccc(OC/C(=C/F)CN)cc2)nc1C(F)F . Value?
Completion: 102

###

Test: Compound pharmacokinetic evaluation in SD rats
Type: in vivo
Conditions: male, Sprague-Dawley, rat, plasma, read-out: Concentration Integral AUC
Property label: AUC (µM·h)
Numbers only, in µM·h.

Prompt: Could you tell me which AUC is on file for Cl.Cn1nc(-c2ccc(OC/C(=C/F)CN)cc2)nc1C(F)F [WX126] ?
Completion: 9.31

###

Assay: Compound pharmacokinetic evaluation in CD-1 mice
Type: in vivo, CD-1 mouse
Conditions: male, mouse, plasma, single intravenous injection and oral, read-out: Peak Concentration Cmax
Property label: Cmax (µM)
Numbers only, in µM.

Prompt: Requested read-out: Cmax. Entry: Cl.Cn1nc(-c2ccc(OC/C(=C/F)CN)cc2)nc1C(F)F
Completion: 3.53

###

CYP2D6 (Homo sapiens (Human)) measurements of IC50, listed per entry.
Sequence (P10635 whole entry): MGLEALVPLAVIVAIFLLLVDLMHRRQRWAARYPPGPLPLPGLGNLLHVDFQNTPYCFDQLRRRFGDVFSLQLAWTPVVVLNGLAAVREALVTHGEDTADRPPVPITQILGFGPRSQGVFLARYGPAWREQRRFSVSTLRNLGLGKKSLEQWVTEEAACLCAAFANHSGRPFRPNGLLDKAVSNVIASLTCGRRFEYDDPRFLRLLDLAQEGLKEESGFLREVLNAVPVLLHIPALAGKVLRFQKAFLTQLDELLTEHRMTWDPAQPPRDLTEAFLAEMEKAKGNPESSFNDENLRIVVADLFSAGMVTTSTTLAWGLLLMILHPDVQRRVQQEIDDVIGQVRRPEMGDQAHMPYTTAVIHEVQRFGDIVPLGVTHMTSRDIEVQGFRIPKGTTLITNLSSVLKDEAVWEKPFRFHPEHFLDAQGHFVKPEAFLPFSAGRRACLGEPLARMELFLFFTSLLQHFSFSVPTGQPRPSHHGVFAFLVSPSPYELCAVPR
Answers are plain numbers, in µM.

# Molecule, Target system, Property label, Recorded number
rows = [
    ("Cl.Cn1nc(-c2ccc(OC/C(=C/F)CN)cc2)nc1C(F)F [WX126]", "CYP2D6 (Homo sapiens (Human))", "IC50", 36),
]

Please turn your attention to the following entry.
Prompt: Data request, read-out IC50, for CC(C)(C)NC(=O)c1ccc(OC/C(=C/F)CN)cc1.Cl [PXS-4728A, reference compound]
Completion: 38

###

Target: CYP2C9 (Homo sapiens (Human), UniProt P11712)
Sequence (P11712 whole entry): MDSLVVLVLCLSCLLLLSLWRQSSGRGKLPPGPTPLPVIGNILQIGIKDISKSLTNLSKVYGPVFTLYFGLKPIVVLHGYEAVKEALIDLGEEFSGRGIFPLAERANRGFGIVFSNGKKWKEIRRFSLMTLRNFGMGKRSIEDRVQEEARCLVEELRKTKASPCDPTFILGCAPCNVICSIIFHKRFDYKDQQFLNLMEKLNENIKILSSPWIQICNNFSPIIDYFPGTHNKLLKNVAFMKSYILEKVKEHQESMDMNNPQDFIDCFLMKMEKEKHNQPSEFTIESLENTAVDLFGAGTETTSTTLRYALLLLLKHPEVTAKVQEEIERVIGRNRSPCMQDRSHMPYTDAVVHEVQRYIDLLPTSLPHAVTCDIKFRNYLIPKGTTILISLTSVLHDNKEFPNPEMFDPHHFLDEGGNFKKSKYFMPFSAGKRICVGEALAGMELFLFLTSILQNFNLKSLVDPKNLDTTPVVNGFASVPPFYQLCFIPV
Property label: pIC50
One number for each entry, as −log10 of the molar value.

Prompt: # input compound: CC(C)(C)NC(=O)c1ccc(OC/C(=C/F)CN)cc1.Cl [PXS-4728A, reference compound] ; wanted: its pIC50
Completion: 4.49

###

Experiment: Compound pharmacokinetic evaluation in SD rats
Format: in vivo
Conditions: male, Sprague-Dawley, rat, plasma, single intravenous injection and oral, read-out: Peak Concentration Cmax
Property label: Cmax (nM)
Answers are plain numbers, in nM.

Prompt: Find the recorded Cmax belonging to Cl.Cn1nc(-c2ccc(OC/C(=C/F)CN)cc2)nc1C(F)F [WX126] and report it.
Completion: 2340

###

Molecular target: VAP-1/SSAO (Homo sapiens (Human), UniProt Q16853)
Sequence (Q16853 whole entry): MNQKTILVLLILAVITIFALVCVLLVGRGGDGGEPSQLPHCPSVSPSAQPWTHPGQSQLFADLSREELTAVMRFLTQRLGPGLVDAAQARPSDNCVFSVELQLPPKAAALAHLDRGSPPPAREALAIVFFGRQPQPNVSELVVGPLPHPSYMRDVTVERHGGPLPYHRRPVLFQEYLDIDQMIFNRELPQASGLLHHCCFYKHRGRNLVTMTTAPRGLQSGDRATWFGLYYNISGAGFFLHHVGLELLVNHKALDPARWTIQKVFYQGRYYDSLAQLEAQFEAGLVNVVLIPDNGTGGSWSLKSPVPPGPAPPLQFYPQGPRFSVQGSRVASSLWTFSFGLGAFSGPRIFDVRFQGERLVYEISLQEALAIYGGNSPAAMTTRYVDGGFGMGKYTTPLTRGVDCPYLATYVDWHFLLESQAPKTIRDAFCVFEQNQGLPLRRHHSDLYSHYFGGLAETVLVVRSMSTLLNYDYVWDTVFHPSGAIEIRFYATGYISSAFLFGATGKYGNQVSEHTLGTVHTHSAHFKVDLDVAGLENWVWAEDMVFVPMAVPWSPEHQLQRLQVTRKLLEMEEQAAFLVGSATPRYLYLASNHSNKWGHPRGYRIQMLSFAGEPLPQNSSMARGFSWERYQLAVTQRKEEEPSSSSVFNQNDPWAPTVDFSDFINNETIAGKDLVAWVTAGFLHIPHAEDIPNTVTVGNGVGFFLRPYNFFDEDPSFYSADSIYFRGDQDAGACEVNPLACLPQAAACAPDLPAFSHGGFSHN
Assay: Human VAP-1 enzyme activity assay (Amplex Red Monoamine Oxidase kit)
Assay type: biochemical
Conditions: 10 nM VAP-1 enzyme, 30 min preincubation, benzylamine substrate; read-out: Human Recombinant VAP-1/SSAO Enzyme Inhibitory Activity IC50
Assignment: determine reported IC50 for the given compounds.
Answers are plain numbers, in pM.

Batch of 3 compounds: report IC50 for each.
1. CCn1nc(-c2ccc(OC/C(=C/F)CN)cc2)nc1C(F)F [WX128]
2. NC/C(=C\F)COc1ccc(-c2nc(NC3CC3)n[nH]2)cc1 [WX081]
3. CC(C)(C)NC(=O)c1noc(-c2ccc(OC/C(=C/F)CN)cc2)n1 [WX042]

Completion:
1. 1000
2. 500
3. 1600

Would you mind listing IC50 for each of the following compounds?
1. NC/C(=C\F)COc1ccc(-c2nc3ccccc3o2)cc1 [WX023]
2. NC/C(=C\F)COc1ccc(-c2nc(N)no2)cc1 [WX074]
3. CCn1nc(-c2ccc(OC/C(=C/F)CN)cc2)nc1N1CCOCC1 [WX125]

Completion:
1: 400; 2: 1000; 3: 1000

Provide IC50 values for the following items, in order.
1. Cc1cn[nH]c1-c1ccc(OC/C(=C/F)CN)cc1 [WX041]
2. Cc1nc(-c2ccc(OC/C(=C/F)CN)cc2)no1 [WX028]

Completion:
[600, 700]

State recorded IC50 for all listed compounds.
1. Cn1nc(-c2ccc(OC/C(=C/F)CN)cc2)nc1C1CC1 [WX075]
2. NC/C(=C\F)COc1ccc(-c2nc(C3CC3(F)F)n[nH]2)cc1 (centres unmarked) [WX096]
3. Cn1nc(-c2ccc(OC/C(=C/F)CN)cc2)nc1C(C)(C)C [WX090]

Completion:
700
800
1100

The measurements presented in this section are drawn from patent US11001563B2.
